- Tested on: OVCAR-5 ovarian
- ASSAY OVERVIEW: NCI-60 one-dose screen, 48 h (100 = growth as untreated, 0 = no growth, -100 = all killed)
- CONDITIONS: 10 µM unless noted
About 83,000 compounds went through this panel and 20% of them were active in at least one assay; those are over-represented in the sample as a whole.
ENDPOINT NAME: growth (%)
State the answer as a number, implicitly in %.

Data request: Supply growth value. Item: CCCCC(=O)OCC1OC(n2cnc3c(=S)nc[nH]c32)C(OC(=O)CCCC)C1OC(=O)CCCC (stereo not given)
Data returned: 32.3

Data request: Supply growth value. Item: "CCN(CC)c1ccc(/C=N\NC(=O)/C=C/C=C/c2ccc3c(c2)OCO3)c(O)c1"
Data returned: 60.9

Data request: Supply growth value. Item: "Cc1cc(N2CCN(c3ccnc4cc(Cl)ccc34)CC2)nc(NC2CCCCC2)n1"
Data returned: 66.8

Data request: Supply growth value. Item: "Cc1cc2nc3[nH]c4ccccc4c3nc2cc1C"
Data returned: 102

Data request: Supply growth value. Item: CCOc1cc2ncc(C#N)c(Nc3ccc(OCc4cccc(F)c4)c(Cl)c3)c2cc1NC(=O)CCCCC1CCSS1 (stereo not given)
Data returned: 111

Data request: Supply growth value. Item: "COc1ccccc1Nc1nc(-c2cc3cccc(C(F)(F)F)c3oc2=O)cs1"
Data returned: 67

Data request: Supply growth value. Item: "CCOC(=O)c1c(C(=O)OCC)c2cc(-c3ccn4c(C(=O)c5ccccc5)c(C(=O)OCC)c(C(=O)OCC)c4c3)ccn2c1C(=O)c1ccccc1"
Data returned: 130

Data request: Supply growth value. Item: "c1ccc(Cn2cc(-c3nc4ccccc4s3)c3cccnc32)cc1"
Data returned: 103

Data request: Supply growth value. Item: CC1CCNC(C)C1 (stereo not given)
Data returned: 113

Data request: Supply growth value. Item: "c1ccc(-c2cc3n4c(-c5ccccc5)nn(-c5ccccc5)c4cnc-3n2)cc1"
Data returned: 92.3

Data request: Supply growth value. Item: "Cn1c(NCCc2ccc(O)c(O)c2)nc2c1c(=O)n(Cc1ccc(Br)cc1)c(=O)n2C"
Data returned: 99.4

Data request: Supply growth value. Item: O=C1NC(=O)C(c2ccc(Cl)cc2Cl)N1 (stereo not given)
Data returned: 106

Data request: Supply growth value. Item: "C[n+]1ccccc1/C=C/c1ccc2cccc(O)c2n1"
Data returned: 51.5

Data request: Supply growth value. Item: CC(O)CN1CC(O)=C(c2nc3ccccc3s2)C1=N (stereo not given)
Data returned: 93.9

Data request: Supply growth value. Item: COc1cc2c(cc1OC)C(Sc1ccc(SC)cc1)c1c(nc(N)c(C#N)c1N)O2 (stereo not given)
Data returned: -63.1

====

- Tested on: UO-31 renal
- ASSAY OVERVIEW: NCI-60 one-dose screen, 48 h (100 = growth as untreated, 0 = no growth, -100 = all killed)
- CONDITIONS: 10 µM unless noted
About 83,000 compounds went through this panel and 20% of them were active in at least one assay; those are over-represented in the sample as a whole.
ENDPOINT NAME: growth (%)
State the answer as a number, implicitly in %.

Data request: Give reported growth for "COc1ccc2[nH]cc(-c3noc(C(=O)c4cn(C)c5ccc(F)cc45)n3)c2c1" (UO-31 renal)
Data returned: 67.9

Data request: Give reported growth for COc1cccc2c1C(=O)c1c(O)c3c(c(O)c1C2=O)C[C@](O)(C(=O)CO)C[C@H]3O[C@@H]1C[C@@H](NC(=O)CCCN(C)C2(c3ccc(F)cc3)CC3CCC2C3)[C@H](O)[C@@H](C)O1 (stereo partly drawn) (UO-31 renal)
Data returned: 71.7

Data request: Give reported growth for "Cc1nn(-c2ccc(F)cc2)c2ncnc(Nc3ccc(NC(=O)Nc4ccc(Cl)c(C(F)(F)F)c4)cc3)c12" (UO-31 renal)
Data returned: 40.1

Taken from PubChem BioAssay (NCI).
